Test system: HepAD38 cells
RUN_DESCRIPTION: HepAD38 cells cytotoxicity assay (CellTiter-Glo Luminescent Cell Viability Assay)
Type: cell-based
COND: 7 days total treatment, read-out: Cell tox (EC50, ηM)
MEASURED_PARAMETER: EC50

Query: Can you share its EC50? I mean this compound: CC(C)C1(C)Cc2cc(OCC3CC3)c(Cl)nc2-c2cc(=O)c(C(=O)O)cn21 (single isomer, unassigned; isomer-2)
Response: > 4 µM

Query: // query: CC(C)(C)C1Cc2cc(OCC3CC3)c(Cl)nc2-c2cc(=O)c(C(=O)O)cn21 (single isomer, unassigned; isomer 1)
Response: > 4 µM

// next entry
Query: Which EC50 is listed for COCCCOc1cc2c(nc1C1CC1)-c1cc(=O)c(C(=O)O)cn1C(C)(C(C)C)C2 (single isomer, unassigned; isomer-2) ?
Response: > 4 µM
